The values you see were collected from paper PMC5011688.

- experiment_notes: Pharmacokinetic measurement of chromone (cimifugin in rat plasma after oral chromone extracts)
- Type: in vivo, Sprague-Dawley rats
- conditions_used: male, Sprague-Dawley, rat, plasma, po, 4 g crude drug/kg, oral chromone extracts 4 g crude drug/kg for 5 days; plasma HPLC; read-out: Tmax of cimifugin in rat plasma (first peak of double-peak curve)
- Protocol: To explore the influence of RS polysaccharide on the pharmacokinetics of chromones, 2.11 g, 1.05 g RS polysaccharide, and 2.11 g glucuronic acid were added to the three aliquots of chromone components, with one aliquot left as control. Thus, totally four test compounds were obtained, including chromone/pan-polysaccharide (CP), chromone/1/2polysaccharide (CHP), chromone/glucuronic acid (CG), and chromone, which served as control. Forty male Sprague-Dawley rats were used in this experiment. […]
endpoint_label: Tmax (h)
Report the figure in h without appending any unit label.

stdin: Could you tell me which Tmax is on file for "COc1c2c(cc3oc(CO)cc(=O)c13)O[C@H](C(C)(C)O)C2" ?
stdout: 1.5
